Test system: Aspergillus niger
METHOD SUMMARY: Antifungal activity against Aspergillus niger at 100 ug/disk after 48 hrs by agar disc-diffusion method
Format: functional
RECORDED CONDITIONS: read-out: IZ
Listing of entries alongside the reported zone of inhibition at 100 µg/disc.
Record the value in mm, omitting the unit from your answer.

O=S(=O)(Cc1nnc(S)s1)c1c[nH]cc1S(=O)(=O)c1ccc(Cl)cc1    26
O=S(=O)(Cc1nnc(S)o1)c1c[nH]cc1S(=O)(=O)c1ccc(Cl)cc1    15
Cc1ccc(S(=O)(=O)c2c[nH]cc2S(=O)(=O)Cc2nnc(S)o2)cc1    17
Nn1c(S)nnc1CS(=O)(=O)c1c[nH]cc1S(=O)(=O)c1ccc(Cl)cc1    34
O=S(=O)(Cc1nnc(S)o1)c1c[nH]cc1S(=O)(=O)c1ccccc1    15

So what's the measured zone of inhibition at 100 µg/disc for this one? "Nn1c(S)nnc1CS(=O)(=O)c1c[nH]cc1S(=O)(=O)c1ccccc1"
30

Same again, this time with "Cc1ccc(S(=O)(=O)c2c[nH]cc2S(=O)(=O)Cc2nnc(S)s2)cc1"
21

Same again, this time with "Cc1ccc(S(=O)(=O)c2c[nH]cc2S(=O)(=O)Cc2nnc(S)n2N)cc1"
34

Same again, this time with CC(=O)N1CCN(c2ccc(OCC3COC(Cn4ccnc4)(c4ccc(Cl)cc4Cl)O3)cc2)CC1 (stereo not given)
36

Same again, this time with "O=S(=O)(Cc1nnc(S)s1)c1c[nH]cc1S(=O)(=O)c1ccccc1"
24
